Entries and their pEC50
Test system: Bmi-1
Test: Sandwich ELISA Assay (Bmi-1 ELISA) in HT-1080 cells
Assay type: cell-based
pEC50: −log10 of the molar value.

Example cases with answers are listed next.
1. Nc1cc(Nc2ccc(C(F)(F)F)cc2)nc(-n2c(C3CC3)nc3ccccc32)n1 | 7.00 to 8.00
2. FC(F)(F)c1nc2ccccn2c1-c1nccc(Nc2ccc(Br)cc2)n1 | 7.00 to 8.00
3. COc1ccc2nc(C)n(-c3nc(N)c(F)c(Nc4ccc(C(F)(F)F)cc4)n3)c2c1 | 7.00 to 8.00
4. FC(F)(F)c1nc2ccc(Cl)cn2c1-c1nccc(Nc2ccc(Cl)cc2)n1 | 5.52 to 7.00
5. CCc1nc2c(F)cc(F)cc2n1-c1nc(N)c(F)c(Nc2ccc(OC(F)F)c(F)c2)n1 | 7.00 to 8.00

Record summary for Cc1nc2ccccn2c1-c1nc(N)c(F)c(Nc2ccc(OC(F)F)c(F)c2)n1 : reported pEC50 = 5.52 to 7.00

###

metric.name: melting point

Sample answers from the record:
1) Cc1cccc(Nc2cc(N)nc(-n3c(C)nc4ccc(F)cc43)n2)c1 [Cpd 268] | 203 to 205 °C
2) Nc1cc(Nc2ccc(C(F)(F)F)cc2)nc(-n2c(C3CC3)nc3ccccc32)n1 [Cpd 149] | 199 to 201 °C

// next item, melting point requested
Per the record, Cc1nc2ccc(F)cc2n1-c1nc(N)cc(Nc2ccc(Cl)cc2)n1 [Cpd 263] has melting point of 183 to 185 °C

###

Test system: Bmi-1
Test: Sandwich ELISA Assay (Bmi-1 ELISA) in HT-1080 cells
Assay type: cell-based
pEC50: −log10 of the molar value.
metric.name: pEC50

Below, each entry is followed by its recorded pEC50 result.
1) COc1ccc(Nc2ccnc(-c3c(C)nc4ccccn34)n2)cc1 | 7.00 to 8.00
2) Nc1nc(-n2c(C3CC3)nc3c(F)cccc32)nc(Nc2ccc(OC(F)F)c(F)c2)c1F | 7.00 to 8.00
3) Cc1nn(C)c(C)c1-c1nc(N)cc(Nc2ccc(C(F)(F)F)cc2)n1 | 5.52 to 7.00
4) Cc1nc2ccccc2n1-c1nc(N)cc(Nc2ccc3c(c2)OCO3)n1 | 8.00 to 9.00

Proceed to the following item.
Documented pEC50 of Cc1nc2cc(F)c(F)cc2n1-c1nc(N)c(F)c(Nc2ccc(OC(F)F)cc2)n1 : 7.00 to 8.00

###

Tested on: Bmi-1
Test: Sandwich ELISA Assay (Bmi-1 ELISA) in HT-1080 cells
Assay type: cell-based
pEC50: −log10 of the molar value.
metric.name: pEC50

Solved entries:
1. Cc1nc2ccc(F)cc2n1-c1nc(N)cc(Nc2ccc(OC(F)F)cc2)n1 | 7.00 to 8.00
2. FC(F)Oc1ccc(Nc2ccnc(-c3c(C(F)(F)F)nc4ccc(Cl)cn34)n2)cc1 | 7.00 to 8.00

The recorded pEC50 for Cc1nc2c(F)cc(F)cc2n1-c1nc(NCCO)cc(Nc2ccc(C(F)(F)F)cc2)n1 is 5.52 to 7.00

CSc1ccc(Nc2cc(N)nc(-n3c(C)nc4ccccc43)n2)cc1 has a reported pEC50 of 7.00 to 8.00

Measured pEC50 of Cc1ccc(Nc2nc(-c3c(C(F)(F)F)nc4ccccn34)ncc2Cl)cc1 : 5.52 to 7.00

Measured pEC50, Cc1nc2ccc(F)cc2n1-c1nc(N)c(F)c(Nc2ccc(Cl)c(F)c2)n1 : 7.00 to 8.00

Note to self: pEC50 recorded for C=Cc1ccc2nc(C)n(-c3nc(N)cc(Nc4ccc(C(F)(F)F)cc4)n3)c2c1 was 5.52 to 7.00

Data point: Cc1nc2ccc([N+](=O)[O-])cc2n1-c1nc(N)c(F)c(Nc2ccc(C(F)(F)F)cc2)n1 ; pEC50 = 5.52 to 7.00

Given item COc1ccc(Nc2nc(-n3c(C)nc4ccccc43)nc(N)c2F)cc1 , the value recorded as its pEC50 is 8.00 to 9.00
